target: T1, Human Factor P (human, UniProt P27918 29-469); assay: Biacore SPR, captured Factor P
T1 construct: Bought protein (Complement Technology cat# A139) in SET and Biacore; Factor P of human serum in the functional assays; also called FP; human FP
T1 sequence (P27918 29-469 limits assumed): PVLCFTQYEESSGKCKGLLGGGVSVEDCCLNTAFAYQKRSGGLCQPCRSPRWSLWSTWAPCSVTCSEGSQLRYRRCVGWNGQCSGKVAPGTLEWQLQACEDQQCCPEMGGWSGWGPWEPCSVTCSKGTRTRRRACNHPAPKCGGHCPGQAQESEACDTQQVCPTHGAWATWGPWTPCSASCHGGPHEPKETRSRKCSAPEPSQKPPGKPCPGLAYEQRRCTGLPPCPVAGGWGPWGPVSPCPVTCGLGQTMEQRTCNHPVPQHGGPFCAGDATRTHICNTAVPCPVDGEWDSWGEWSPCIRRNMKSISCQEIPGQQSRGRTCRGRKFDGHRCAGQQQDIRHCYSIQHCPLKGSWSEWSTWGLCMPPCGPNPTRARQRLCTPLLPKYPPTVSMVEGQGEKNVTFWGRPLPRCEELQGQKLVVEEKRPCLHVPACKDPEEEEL
observation.type: kon (M⁻¹ s⁻¹)
Numbers only, in M⁻¹ s⁻¹.

Solved cases (5 shown):
{"binder": "NVS965-Q (Fab, V domains shown, NVS965 with heavy chain N30 replaced with glutamine) VH: EVQLVQSGAEVKKPGSSVKVSCKASGGTFQSYAISWVRQAPGQGLEWMGRIIPIFGTANYAQKFQGRVTITADESTSTAYMELSSLRSEDTAVYYCARHGGYSFDSWGQGTLVTVSS VL: SYVLTQPPSVSVAPGKTARISCSGDNLGSKYVDWYQQKPGQAPVLVIYSDNNRPSGIPERFSGSNSGNTATLTISGTQAMDEADYYCATYDSSPRTEVFGGGTKLTVLG", "observation.type": "kon", "measurement.units": "M⁻¹ s⁻¹", "readout.value": "2.65e+06"}
{"binder": "NVS805 (Fab, V domains shown) VH: EVQLVQSGAEVKKPGSSVKVSCKASGGTFSSYAISWVRQAPGQGLEWMGRIIPIFGTANYAQKFQGRVTITADESTSTAYMELSSLRSEDTAVYYCARHGGYVFDSWGQGTLVTVSS VL: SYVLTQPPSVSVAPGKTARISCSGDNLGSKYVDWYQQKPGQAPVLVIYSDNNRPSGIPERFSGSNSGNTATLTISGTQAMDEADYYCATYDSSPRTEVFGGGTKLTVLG", "observation.type": "kon", "measurement.units": "M⁻¹ s⁻¹", "readout.value": "3.61e+06"}
{"binder": "NVS967 (Fab, V domains shown, Disulfide-bridged Fab; also called Fab NVS967) VH: EVQLVQSGAEVKKPGASVKVSCKASGYTFTSHYMHWVRQAPGQGLEWMGNINPVDGGTEYAQKFQGRVTMTRDTSISTAYMELSSLRSEDTAVYYCARDGIEHGGHYYWGYLFDIWGQGTLVTVSS VL: SYVLTQPPSVSVAPGKTARISCSGDSIREYYVHWYQQKPGQAPVLVIGDDTNRPSGIPERFSGSNSGNTATLTISRAQAGDEADYYCAAWDFSPAIVFGGGTKLTVLG", "observation.type": "kon", "measurement.units": "M⁻¹ s⁻¹", "readout.value": "1e+06"}
{"binder": "NVS964 (Fab, V domains shown, Disulfide-bridged Fab; also called Fab NVS964) VH: EVQLVQSGAEVKKPGASVKVSCKASGYTFTSHYMHWVRQAPGQGLEWMGKINADLGDTNYAQKFQGRVTMTRDTSISTAYMELSSLRSEDTAVYYCARDGIEHGGHYYWGYLFDIWGQGTLVTVSS VL: SYELTQPPSVSVAPGQTARISCSGDSIREYYVHWYQQKPGQAPVLVIGDDTNRPSGIPERFSGSNSGNTATLTISGTQAEDEADYYCAAWDFSPAIVFGGGTKLTVLG", "observation.type": "kon", "measurement.units": "M⁻¹ s⁻¹", "readout.value": "1e+06"}
{"binder": "NVS966 (Fab, V domains shown, Disulfide-bridged Fab; also called Fab NVS966) VH: EVQLVQSGAEVKKPGESLKISCKGSGYSFTNYWIGWVRQMPGKGLEWMGRIDPGESLTNYAPSFQGQVTISADKSISTAYLQWSSLKASDTAMYYCARTGVADVDMPFAHWGQGTLVTVSS VL: SYVLTQPPSVSVAPGKTARISCSGDNLGSYYVNWYQQKPGQAPVLVIYGDSERPSGIPERFSGSNSGNTATLTISRAQAGDEADYYCGSWDITSFVFGGGTKLTVLG", "observation.type": "kon", "measurement.units": "M⁻¹ s⁻¹", "readout.value": "2e+06"}

Field: kon. Fill in for each record below.
1. NVS965-T (Fab, V domains shown, NVS965 with heavy chain N30 replaced with threonine) VH: EVQLVQSGAEVKKPGSSVKVSCKASGGTFTSYAISWVRQAPGQGLEWMGRIIPIFGTANYAQKFQGRVTITADESTSTAYMELSSLRSEDTAVYYCARHGGYSFDSWGQGTLVTVSS VL: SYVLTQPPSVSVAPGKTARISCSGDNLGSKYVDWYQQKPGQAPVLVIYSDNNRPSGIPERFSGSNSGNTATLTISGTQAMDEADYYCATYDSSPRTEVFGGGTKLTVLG
2. NVS962-T (Fab, V domains shown, NVS962 with heavy chain N30 replaced with threonine; also called NSV962-T) VH: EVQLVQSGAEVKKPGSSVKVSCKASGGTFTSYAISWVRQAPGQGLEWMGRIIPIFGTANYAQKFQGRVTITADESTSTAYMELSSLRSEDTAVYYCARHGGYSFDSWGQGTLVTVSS VL: SYELTQPPSVSVAPGQTARISCSGDNLGSKYVDWYQQKPGQAPVLVIYSDNNRPSGIPERFSGSNSGNTATLTISGTQAEDEADYYCQTYTSGNNYLVFGGGTKLTVLG
3. NVS808 (Fab, V domains shown) VH: EVQLVQSGAEVKKPGSSVKVSCKASGGTFSSYAISWVRQAPGQGLEWMGRIIPIFGTANYAQKFQGRVTITADESTSTAYMELSSLRSEDTAVYYCARHGGYIFDSWGQGTLVTVSS VL: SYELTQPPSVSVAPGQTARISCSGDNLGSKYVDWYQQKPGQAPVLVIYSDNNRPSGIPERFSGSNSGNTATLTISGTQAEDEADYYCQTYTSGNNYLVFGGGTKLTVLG
4. NVS807 (Fab, V domains shown) VH: EVQLVQSGAEVKKPGSSVKVSCKASGGTFSSYAISWVRQAPGQGLEWMGRIIPIFGTANYAQKFQGRVTITADESTSTAYMELSSLRSEDTAVYYCARHGGYYFDSWGQGTLVTVSS VL: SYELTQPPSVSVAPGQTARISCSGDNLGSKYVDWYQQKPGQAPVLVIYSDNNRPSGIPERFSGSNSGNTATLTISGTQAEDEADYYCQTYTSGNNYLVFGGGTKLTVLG
5. NVS962 (Fab, V domains shown, also called Fab NVS962) VH: EVQLVQSGAEVKKPGSSVKVSCKASGGTFNSYAISWVRQAPGQGLEWMGRIIPIFGTANYAQKFQGRVTITADESTSTAYMELSSLRSEDTAVYYCARHGGYSFDSWGQGTLVTVSS VL: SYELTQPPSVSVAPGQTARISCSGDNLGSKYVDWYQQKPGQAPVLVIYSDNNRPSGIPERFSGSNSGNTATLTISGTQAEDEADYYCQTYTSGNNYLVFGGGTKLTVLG

Key:
1. 2.37e+06
2. 639000
3. 791000
4. 1.21e+06
5. 1.52e+06
